- ASSAY OVERVIEW: Lipid/water partition parameter RM from thin-film chromatography on silica gel
- Assay type: physicochemical
- STUDY CONDITIONS: Solvent 2: heptane:isopropanol:ethyl acetate:H2O 40:20:50:2; RM of derivative minus RM of corresponding alkanolamide
Outcome: Met for ΔRM solvent 2 of at least -0.3; Not met for anything lower.

Query: Please check the record CCCCCCCCCCCCCCCC(=O)NCCOC(=O)OCC [Example 1] and state if its ΔRM solvent 2 is at or above -0.3.
Result: Not met

Query: Please check the record O=C(CCCCCCCC(=O)NCCOC1CCCO1)NCCOC1CCCO1 (stereo not shown) [Example 10] and state if its ΔRM solvent 2 is at or above -0.3.
Result: Not met

Query: Please check the record O=C(CCCCCCCC(=O)NCCOC1CCCCO1)NCCOC1CCCCO1 (stereo not shown) [Example 12] and state if its ΔRM solvent 2 is at or above -0.3.
Result: Not met

Query: Please check the record CCCCCCCCCCCCCCCC(=O)NCCOC(=O)OCC(C)C [Example 2] and state if its ΔRM solvent 2 is at or above -0.3.
Result: Not met

Query: Please check the record CCCCCCCCCCCCCCCC(=O)NCCOC(=O)NCC(=O)OCC [Example 6] and state if its ΔRM solvent 2 is at or above -0.3.
Result: Met

Query: Please check the record CCCCCCCCCCCCCCCC(=O)NCCCOC(=O)OCC [Example 3] and state if its ΔRM solvent 2 is at or above -0.3.
Result: Not met

Query: Please check the record CCCCCCCCCCCCCCCC(=O)NCCOC1CCCO1 (stereo not shown) [Example 9] and state if its ΔRM solvent 2 is at or above -0.3.
Result: Met

Query: Please check the record CCCCCCCC/C=C\CCCCCCCC(=O)NCCOC(=O)OCC [Example 13] and state if its ΔRM solvent 2 is at or above -0.3.
Result: Not met
